Parameter composite z-score: see the listing below.
assay: probe aLefty2 binding to arrayed compounds – biochemical, biotinylated probe, 635/667 nm fluorescence, primary screen (AID 1094); conditions: small-molecule microarray, higher = more signal;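 further: score merges spot fluorescence near 667 nm with spot signal-to-noise ratio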

Observe how each entry below is paired with its result.
{"columns": ["Molecule", "Measure", "Value Measured"],
 "data": [
  ["[N-]=[N+]=Nc1ccccc1C[C@]1(C(=O)NCCN2CCOCC2)COC(c2ccc(OCCCO)cc2)=N1", "composite z-score", 0.194],
  ["CC1CC/C=C\\[C@H]2OC34C=CCN(c5ccc(Cl)cc5)C(=O)[C@H]3N(C(C)CO)C(=O)[C@]4(C)C2C(=O)O1 (some centres undefined)", "composite z-score", -0.0099],
  ["C=CCN1C(=O)[C@]2(CCS(=O)(=O)c3ccccc3)N=C(c3ccc(OCCCO)cc3)O[C@@H]2c2ccccc21", "composite z-score", 0.0416]
]}

Please turn your attention to the following entry.
**Q:** Give its composite z-score value. Item: CCOc1cc(C(O)C2C=CC3C(=O)NC(=O)C3N2Nc2ccc(Cl)cc2Cl)ccc1O (centres undefined)
**A:** 0.0717
